// provenance: ChEMBL document CHEMBL1201862

Test system: HCC 2998
Procedure details: NCI tumour cell line growth inhibition, 48 h
Activity calls are given as the source filed them. No stated cut-off is given here; in the data, active = GI50 up to about 1.1 µM and inactive = higher.
Endpoint label: GI50

{"Compound": "CCCCCc1cc2cc3c(c(O)c2c(=O)[nH]1)C1(CCC3)C(=O)c2c(O)c3c(c(O)c2C1=O)C(=O)C(OC)=CC3=O (stereo unspecified)", "GI50": "2.05 µM (inactive)"}

Kindly note the recorded GI50 for C1CSCCCSCCSCCCSC1 , which is > 100 µM (inactive)

Kindly note the recorded GI50 for CC12CCC(=O)[C@@]1(C)CCCC2=O (stereo partly specified) , which is > 100 µM (inactive)

Kindly note the recorded GI50 for C/C(=N\NC(=S)N1CCC(C2CCN(C(=S)N/N=C(\C)c3ccccn3)CC2)CC1)c1ccccn1 , which is > 100 µM (inactive)

Kindly note the recorded GI50 for O=c1c2cc([N+](=O)[O-])ccc2[nH]n1Cc1ccccn1 , which is > 100 µM (inactive)

Kindly note the recorded GI50 for S=C(Nc1ccc2c(c1)oc1ccccc12)c1cccnc1 , which is > 100 µM (inactive)

* * *

Test system: NCI/ADR-RES
Procedure details: NCI tumour cell line growth inhibition, 48 h
Active and inactive are the calls of the source. No stated cut-off is given here; in the data, active = GI50 up to about 1.1 µM and inactive = higher.
Endpoint label: GI50

Kindly note the recorded GI50 for NCCSc1nc(-c2ccccc2)c(-c2ccccc2)o1 , which is > 100 µM (inactive)

Kindly note the recorded GI50 for S=C(Nc1ccc2c(c1)oc1ccccc12)c1cccnc1 , which is 25.1 µM (inactive)

Kindly note the recorded GI50 for CC(=O)N1CC(=O)N2C(=O)/C(=C/c3ccc(Cl)cc3)N=C12 , which is > 100 µM (inactive)

Kindly note the recorded GI50 for COCC1OCCN1C (configuration not stated) , which is > 100 µM (inactive)

Kindly note the recorded GI50 for C=CC(O)C#Cc1cnc(OC)nc1OC (configuration not stated) , which is > 100 µM (inactive)

Kindly note the recorded GI50 for O=c1c2ccccc2nc(N/N=C/c2ccc([N+](=O)[O-])cc2)n1-c1ccccc1 , which is 13.4 µM (inactive)

Kindly note the recorded GI50 for CO/N=C(/C)c1cccc(Nc2nc3ccccc3c3[nH]c4ccccc4c23)c1 , which is 8.97 µM (inactive)

Kindly note the recorded GI50 for CC(C)=CCC[C@@H](C)C1=C(O)C(=O)C(C)=C(N)C1=O , which is 3.9 µM (inactive)

Kindly note the recorded GI50 for COc1cccc2c(N)c3cccc(C(=O)NCCN(C)C)c3nc12 , which is 0.979 µM (active)

Kindly note the recorded GI50 for COc1c(-c2nc3ccc(N4CCN(C)CC4)cc3[nH]2)cc(OC)c2[nH]c(COC(C)=O)nc12 , which is > 100 µM (inactive)

Kindly note the recorded GI50 for O=C(Nc1ccc2oc(=O)c(C(=O)O)cc2c1)Oc1ccccc1 , which is > 100 µM (inactive)

Kindly note the recorded GI50 for Cc1ccc2nc(-c3ccccc3)c(N=O)n2c1 , which is 46.2 µM (inactive)

* * *

Test system: SR
Procedure details: NCI tumour cell line growth inhibition, 48 h
Calls of active or inactive are those of the source. No stated cut-off is given here; in the data, active = GI50 up to about 1.1 µM and inactive = higher.
Pick from T for active, F for inactive when you respond.

For orientation, consider the following solved cases.
{"Input smiles": "CN(C)c1ccc(/C=C2\\C[C@H]3[C@@H]4CC=C5C[C@@H](O)CC[C@]5(C)[C@H]4CC[C@]3(C)C2=O)cc1", "Assigned category": "F"}
{"Input smiles": "COc1ccc2cc(CNCCOCCOCCNCc3ccc4cc(OC)ccc4c3)ccc2c1", "Assigned category": "T"}
{"Input smiles": "Clc1ccc(-c2nnc3sc4nc5ccccc5c-4nn23)c(Cl)c1", "Assigned category": "F"}
{"Input smiles": "S=C(Nc1ccc2c(c1)oc1ccccc12)c1cccnc1", "Assigned category": "F"}

With those in mind, consider the next compound.
Qu. Outcome logged for CCCCC(/C=N/NC(=N)N)CC.Cc1cc(O)c(C(C)C)cc1S(=O)(=O)O in this assay:
Ans. F

* * *

Test system: MDA-MB-231
Procedure details: NCI tumour cell line growth inhibition, 48 h
The source made the active and inactive calls. Cut-off read from the data, not from the text of the source: active = GI50 up to about 1.1 µM and inactive = higher.
Pick from True for active, False for inactive when you respond.

{"Molecule": "CCCCOc1ccc2c(c1)CC[C@@H]1[C@@H]2CC[C@]2(C)C(=O)N(CCCC)C(=O)C[C@@H]12", "Assigned category": "False"}
{"Molecule": "CC12CCC(=O)[C@@]1(C)CCCC2=O (some centres undefined)", "Assigned category": "False"}

Qu. Outcome logged for COc1cccc2c1C(=O)c1c(O)c3c(c(O)c1C2=O)C[C@@](O)(C(=O)CO)C[C@@H]3OC1CC(N(C)C)C(O)C(C)O1 (some centres undefined) in this assay:
Ans. True

Qu. Outcome logged for CC(=O)O[C@@H]1[C@H](OC2CCCCC2(c2ccccc2)c2ccccc2)O[N+]([O-])=CC12CCCCC2 (some centres undefined) in this assay:
Ans. False

* * *

Each entry below lists one item and its recorded GI50 value.
Test system: SW-620
Procedure details: NCI tumour cell line growth inhibition, 48 h
The source made the active and inactive calls. No stated cut-off is given here; in the data, active = GI50 up to about 1.1 µM and inactive = higher.

Known GI50 results, listed for orientation:
{"Compound": "CC1(C)CC[C@]2(C)[C@@H](O)C[C@]3(C)C(=CC[C@@H]4[C@@]5(C)CC[C@H](O)C(C)(C)[C@@H]5CC[C@]43C)[C@@H]2C1", "System under test": "SW-620", "GI50": "> 100 µM (inactive)"}
{"Compound": "COc1ccc(NCc2cc(OC)cc(OC)c2)cc1", "System under test": "SW-620", "GI50": "8.32 µM (inactive)"}
{"Compound": "CN(C)c1ncnc2c1Cc1ccccc1C(=O)N2C", "System under test": "SW-620", "GI50": "> 100 µM (inactive)"}
{"Compound": "COc1ccc(S(=O)(=O)Nc2ccccc2C(=O)O)cc1", "System under test": "SW-620", "GI50": "> 100 µM (inactive)"}
{"Compound": "Cc1cc(Br)cc(C)c1NC(=O)C(=O)CC(=O)c1sc(-n2nc(-c3ccccc3)cc2-c2ccccc2)nc1C", "System under test": "SW-620", "GI50": "> 100 µM (inactive)"}
{"Compound": "CCCCCc1cc2cc3c(c(O)c2c(=O)[nH]1)C1(CCC3)C(=O)c2c(O)c3c(c(O)c2C1=O)C(=O)C(OC)=CC3=O (centres undefined)", "System under test": "SW-620", "GI50": "0.681 µM (active)"}
{"Compound": "CCn1c2ccccc2c2ccc3c(c21)C(=O)c1ccccc1C3=O", "System under test": "SW-620", "GI50": "> 100 µM (inactive)"}
{"Compound": "O=C1OC(Cl)C(N=P(c2ccccc2)(c2ccccc2)c2ccccc2)=C1Cl (centres undefined)", "System under test": "SW-620", "GI50": "> 100 µM (inactive)"}
{"Compound": "CC1(C)CN=C(Nc2ccc(F)c(Cl)c2)S1", "System under test": "SW-620", "GI50": "> 100 µM (inactive)"}
{"Compound": "CCOC(=O)C1=C(C)NC(c2ccccc2)=C(C(=O)OCc2ccccc2)C1C#Cc1ccccc1 (centres undefined)", "System under test": "SW-620", "GI50": "> 100 µM (inactive)"}

Query CCCCCCCCCCCCCCCCc1c(O)nc(NN)nc1C(=O)OC on SW-620; GI50 returned: > 50 µM (inactive)

Query Cc1ccc(C2SCC(=O)N2c2ccc(-n3c(-c4ccccc4)nc4ccccc4c3=O)cc2)cc1 (centres undefined) on SW-620; GI50 returned: 34.6 µM (inactive)

Query CC(=O)OCC1OC(n2c3c(cc(C#N)c2=S)CCC3)C(OC(C)=O)C(OC(C)=O)C1OC(C)=O (centres undefined) on SW-620; GI50 returned: > 100 µM (inactive)

Query Fc1cc(C2=Nn3c(COc4ccccc4Cl)nnc3S/C2=C\c2ccc(Cl)cc2)c(Cl)cc1Cl on SW-620; GI50 returned: 3.54 µM (inactive)

Query NNC(=O)/C(=C/c1cccc([N+](=O)[O-])c1)NC(=O)c1ccccc1 on SW-620; GI50 returned: > 100 µM (inactive)

Query CC(C)[Si](OCC1CC(C#N)OC(C)(C)O1)(C(C)C)C(C)C (centres undefined) on SW-620; GI50 returned: 18.9 µM (inactive)

Query Clc1ccc(-c2nnc3sc4nc5ccccc5c-4nn23)c(Cl)c1 on SW-620; GI50 returned: 46 µM (inactive)

Query C=CCC1=CC2(OC)C(=O)C(OC)(OC)C1C1C(OC)(OC)C(=O)C(OC)=CC12CC=C (centres undefined) on SW-620; GI50 returned: > 100 µM (inactive)

Query Cc1[nH]c2ccccc2c1C1Cc2ccccc2N1C(=O)/C=C\C(=O)O (centres undefined) on SW-620; GI50 returned: 32.4 µM (inactive)

Query O=[N+]([O-])c1ccc(S[C@@H]2[C@H]3c4c(-c5ccccc5)[nH]c(-c5ccccc5)c4[C@@H]2C[C@H]3Cl)cc1 on SW-620; GI50 returned: 3.37 µM (inactive)

Query C/C=C/COC(=O)CO[N+](=O)[O-] on SW-620; GI50 returned: > 100 µM (inactive)

Query NC(=O)NCc1c(C(N)=O)ncn1Cc1ccccc1 on SW-620; GI50 returned: > 100 µM (inactive)

Query CC(=O)OCC(OC(C)=O)C(OC(C)=O)C(OC(C)=O)C(/C=N\Nc1nc2ccccc2c(=O)[nH]1)OC(C)=O (centres undefined) on SW-620; GI50 returned: > 100 µM (inactive)

Query CC1(C)C(=O)CCC(=O)C(C)(C)C2=CC=C(O2)C(C)(C)C(=O)CCC(=O)C(C)(C)C2=CC=C1O2 on SW-620; GI50 returned: > 100 µM (inactive)

Query O=S(=O)(O)c1ccccc1/N=N\c1ccc(/N=N/c2c(O)ccc3ccccc23)c(S(=O)(=O)O)c1 on SW-620; GI50 returned: > 100 µM (inactive)
